Data origin: ChEMBL document CHEMBL4840323

protocol-text: Cmax in C57BL/6 mouse at 20 mg/kg, po via gavage measured up to 24 hrs by LC-MS/MS analysis
Type: ADME, organism-based
Parameters: route oral, dose 20 mg/kg, time <=24
study-conditions: in vivo
test-readout: Cmax (µM)
Just the number please, in µM, no unit attached.

response.value for CC(C)(Oc1cccc(N2CCC[C@@H](C(=O)N(Cc3ccc(-c4cn[nH]c4)cc3)C3CC3)C2)c1)C(=O)N1CCNCC1.Cl (field: Cmax) = 3.21

---

protocol-text: Half life in mouse liver microsomes at 1 uM measured up to 60 mins in presence of NADPH by LC-MS/SM analysis
Format: ADME, Microsome
study-conditions: 1 h
test-readout: t1/2
Could you write the number and then its unit?

See these solved cases before continuing.
compound	t1/2
CC(C)(Oc1cccc(N2CCC[C@@H](C(=O)N(Cc3ccc(-c4cn[nH]c4)cc3)C3CC3)C2)c1)C(=O)N1CCNCC1.Cl	9.6 min
CCN(CC)CCNC(=O)c1c(C)[nH]c(/C=C2\C(=O)Nc3ccc(F)cc32)c1C [SUNITINIB]	13 min

Could you now consider this next compound?
t1/2 reading for CCN(Cc1ccc(-c2cn[nH]c2)cc1)C(=O)[C@@H]1CCCN(c2cccc(OC(C)(C)C(=O)N3CCNCC3)c2)C1.Cl : 7.7 min

---

measured-on: beta-catenin-B-cell lymphoma 9 protein complex (Homo sapiens)
protocol-text: Inhibition of N-terminal 6-His-tagged beta-catenin (1 to 781 residues) (unknown origin) expressed in Escherichia coli BL21 (DE3)-N-terminal biotinylated human BCL9 (350 to 375 residues) protein-protein interaction incubated for 1 hr by Alphascreen assay
test-readout: Ki
Express the reported value numerically, then name its unit.

Consider the worked cases shown below.
cpd-smiles	test-readout	val
CC(C)(Oc1cccc(N2CCC[C@@H](C(=O)N(Cc3ccc(-c4ccsc4)cc3)C3CC3)C2)c1)C(=O)N1CCNCC1	Ki	5 µM
CC(C)(Oc1cccc(N2CCC[C@@H](C(=O)N(Cc3ccc(-c4ccccc4)cc3)C3CC3)C2)c1)C(=O)N1CCNCC1	Ki	4 µM
CC(C)(Oc1cccc(N2CCC[C@@H](C(=O)N(Cc3ccc(-c4cccnc4)cc3)C3CC3)C2)c1)C(=O)N1CCNCC1	Ki	66 µM

Lab note: compound CCOCCN(Cc1ccc(-c2cn[nH]c2)cc1)C(=O)[C@@H]1CCCN(c2cccc(OC(C)(C)C(=O)N3CCNCC3)c2)C1 tested on beta-catenin-B-cell lymphoma 9 protein complex (Homo sapiens); recorded Ki was 1.9 µM

So the reported Ki for CC(C)(Oc1cccc(N2CCC[C@@H](C(=O)N(Cc3ccc(-c4cn[nH]c4)cc3)C3CC3)C2)c1)C(=O)N1CCCCC1 , on beta-catenin-B-cell lymphoma 9 protein complex (Homo sapiens), turned out to be 43 µM

Form field, Ki with beta-catenin-B-cell lymphoma 9 protein complex (Homo sapiens), item CC(C)c1ccc(CN(C(=O)[C@@H]2CCCN(c3cccc(OC(C)(C)C(=O)N4CCNCC4)c3)C2)C(C)C)cc1 : 4.6 µM

Item: CC(C)(Oc1cccc(N2CCC[C@@H](C(=O)N(Cc3ccc(-c4ccn[nH]4)cc3)C3CC3)C2)c1)C(=O)N1CCNCC1 | System: beta-catenin-B-cell lymphoma 9 protein complex (Homo sapiens) | Ki: 8 µM

Record CC(C)c1ccc(CN(C)C(=O)[C@@H]2CCCN(c3cccc(OC(C)(C)C(=O)N4CCNCC4)c3)C2)cc1 has beta-catenin-B-cell lymphoma 9 protein complex (Homo sapiens) Ki equal to 14 µM

Sample CCN(Cc1ccc(C(C)C)cc1)C(=O)[C@@H]1CCCN(c2cccc(OC(C)(C)C(=O)N3CCNCC3)c2)C1 , system: beta-catenin-B-cell lymphoma 9 protein complex (Homo sapiens). Its Ki is 11 µM

Bench note, beta-catenin-B-cell lymphoma 9 protein complex (Homo sapiens): entry CC(C)c1ccc(CN(C(=O)[C@@H]2CCCN(c3cccc(OC(C)(C)C(=O)N4CCNCC4)c3)C2)C2CC2)cc1 , its Ki = 2.7 µM

Noted Ki for CC(C)c1ccc(CNC(=O)[C@@H]2CCCN(c3cccc(OC(C)(C)C(=O)N4CCNCC4)c3)C2)cc1 , tested on beta-catenin-B-cell lymphoma 9 protein complex (Homo sapiens): 5.8 µM

---

protocol-text: Clearance in C57BL/6 mouse at 20 mg/kg, po via gavage measured up to 24 hrs by LC-MS/MS analysis
Format: ADME, organism-based
study-conditions: in vivo
test-readout: CL/F (mL/min/kg)
Give the value in mL/min/kg but do not write mL/min/kg after it.

Entry under test: CC(C)(Oc1cccc(N2CCC[C@@H](C(=O)N(Cc3ccc(-c4cn[nH]c4)cc3)C3CC3)C2)c1)C(=O)N1CCNCC1.Cl . Its CL/F was 51.1

---

measured-on: Catenin beta-1 (Homo sapiens)
Sequence (P35222 whole entry): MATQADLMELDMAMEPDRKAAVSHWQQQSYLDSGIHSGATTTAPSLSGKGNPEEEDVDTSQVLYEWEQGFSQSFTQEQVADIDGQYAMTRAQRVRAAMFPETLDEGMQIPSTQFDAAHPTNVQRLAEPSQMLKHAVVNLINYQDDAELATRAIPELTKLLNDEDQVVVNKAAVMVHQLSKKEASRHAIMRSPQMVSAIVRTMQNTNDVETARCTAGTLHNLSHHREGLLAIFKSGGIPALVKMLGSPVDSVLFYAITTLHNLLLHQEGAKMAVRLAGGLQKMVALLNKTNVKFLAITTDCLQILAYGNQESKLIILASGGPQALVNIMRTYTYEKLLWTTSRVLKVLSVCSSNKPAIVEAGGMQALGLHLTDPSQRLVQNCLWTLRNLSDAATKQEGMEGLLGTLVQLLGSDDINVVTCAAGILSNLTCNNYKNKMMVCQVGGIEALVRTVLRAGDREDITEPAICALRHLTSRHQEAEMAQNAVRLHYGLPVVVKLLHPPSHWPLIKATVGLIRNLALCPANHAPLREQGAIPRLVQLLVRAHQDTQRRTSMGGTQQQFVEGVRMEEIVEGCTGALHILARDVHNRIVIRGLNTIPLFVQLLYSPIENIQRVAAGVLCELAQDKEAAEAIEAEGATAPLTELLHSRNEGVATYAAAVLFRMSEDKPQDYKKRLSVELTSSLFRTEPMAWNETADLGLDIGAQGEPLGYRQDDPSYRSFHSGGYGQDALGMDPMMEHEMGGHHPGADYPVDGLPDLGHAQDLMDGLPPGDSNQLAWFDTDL
protocol-text: Inhibition of beta-catenin (unknown origin) transfected in HEK293 cells cotransfected with pCMV-RL assessed as reduction in luciferase activity measured after 24 hrs by TOPFlash luciferase reporter assay
Assay type: cell-based
test-readout: IC50

Sample CN1CCN(C(=O)C(C)(C)Oc2cccc(N3CCC[C@@H](C(=O)N(Cc4ccc(-c5cn[nH]c5)cc4)C4CC4)C3)c2)CC1 ; IC50 observed: > 200 µM

---

measured-on: beta-catenin-B-cell lymphoma 9 protein complex (Homo sapiens, UniProt P35222)
protocol-text: Inhibition of C-terminal 6-His-tagged beta-catenin (1 to 781 residues) (unknown origin) expressed in Escherichia coli BL21 (DE3)-N-terminal biotinylated human BCL9 (350 to 375 residues) protein-protein interaction incubated for 1 hr by Alphascreen assay
test-readout: pIC50
Would you please state pIC50, meaning minus log10 of the concentration in mol/L, as a bare number?

cpd-smiles	test-readout	val
Cn1cc(-c2ccc(CN(C(=O)[C@@H]3CCCN(c4cccc(OC(C)(C)C(=O)N5CCNCC5)c4)C3)C3CC3)cc2)cn1	pIC50	4.12
CC(C)(Oc1cccc(N2CCC[C@@H](C(=O)N(Cc3ccc(-c4ccn[nH]4)cc3)C3CC3)C2)c1)C(=O)N1CCNCC1	pIC50	5.05
CC(C)(Oc1cccc(N2CCC[C@@H](C(=O)N(Cc3ccc(C(C)(C)C)cc3)C3CC3)C2)c1)C(=O)N1CCNCC1	pIC50	4.85
CN1CCN(C(=O)C(C)(C)Oc2cccc(N3CCC[C@@H](C(=O)N(Cc4ccc(-c5cn[nH]c5)cc4)C4CC4)C3)c2)CC1	pIC50	4.41
CC(C)(Oc1cccc(N2CCC[C@@H](C(=O)N(Cc3ccc(-c4cccnc4)cc3)C3CC3)C2)c1)C(=O)N1CCNCC1	pIC50	4.14

// field: pIC50; key: CC(C)c1ccc(CN(C(=O)[C@@H]2CCCN(c3cccc(OC(C)(C)C(=O)N4CCNCC4)c3)C2)C(C)C)cc1 ; value = 5.29

// recorded pIC50 for CCOCCN(Cc1ccc(-c2cn[nH]c2)cc1)C(=O)[C@@H]1CCCN(c2cccc(OC(C)(C)C(=O)N3CCNCC3)c2)C1 : 5.68

Entry under test: CC(C)(Oc1cccc(N2CCC[C@@H](C(=O)N(Cc3ccc(-c4ccncc4)cc3)C3CC3)C2)c1)C(=O)N1CCNCC1 . Its pIC50 was 4.09

Recorded result, CC(C)c1ccc(CN(C)C(=O)[C@@H]2CCCN(c3cccc(OC(C)(C)C(=O)N4CCNCC4)c3)C2)cc1 , pIC50: 4.82

Note to self: pIC50 recorded for CCN(Cc1ccc(C(C)C)cc1)C(=O)[C@@H]1CCCN(c2cccc(OC(C)(C)C(=O)N3CCNCC3)c2)C1 was 4.92

Entry CC(C)(Oc1cccc(N2CCC[C@@H](C(=O)N(Cc3ccc(C4CCCCC4)cc3)C3CC3)C2)c1)C(=O)N1CCNCC1 ; pIC50 = 5.28

Lab note: CC(C)(Oc1cccc(N2CCC[C@@H](C(=O)N(Cc3ccc(-c4cn[nH]c4)cc3)C3CC3)C2)c1)C(=O)N1CCCCC1 gave pIC50 of 4.28

Given item CC(C)(Oc1cccc(N2CCC[C@@H](C(=O)N(Cc3ccc(-c4ccccn4)cc3)C3CC3)C2)c1)C(=O)N1CCNCC1 , the value recorded as its pIC50 is 4.23

pIC50 measured on CC(C)(Oc1cccc(N2CCC[C@@H](C(=O)N(Cc3ccc(-c4ccsc4)cc3)C3CC3)C2)c1)C(=O)N1CCNCC1 = 5.26
